# Test system: SR
# Protocol: NCI tumour cell line growth inhibition, 48 h
The source made the active and inactive calls. Cut-off read from the data, not from the text of the source: active = GI50 up to about 1.1 µM and inactive = higher.
Pick one: active, inactive

> print(dat)
                                   molecule  discrete.label
1  CCN(CC)CCCNc1c2cc(OC)ccc2nc2cccc([N+](=O)[O-])c12          active
2  COc1cc2c(cc1OC)C1C(=O)c3c(O)cc4c(c3OC1CO2)C=CC(C)(C)O4 (configuration not stated)        inactive
3           O=C1c2ccccc2C(=O)N1CCc1ncc[nH]1        inactive
4  O=C(CCN1CCCC1)CC(c1ccccc1)c1c(O)c2ccccc2oc1=O (configuration not stated)        inactive
5  CCCCCCCCCCCCCCCCNc1nc(=O)n(C2CC(O)C(CO)O2)cc1F (configuration not stated)        inactive
6    C=C(c1ccc2[nH]c(NC(=O)OC)nc2c1)c1cccs1          active
7                            C1CNCCNCCNCCN1        inactive
8  Cc1ccc(N2C(=O)CS/C2=C(\C#N)c2nc3ccccc3[nH]2)cc1        inactive

Prompt line: Dear all, I need the recorded test outcome for `Nc1ccc(/N=N\c2ccc(-c3ccc(O)cc3)cc2)c2ccc(S(=O)(=O)O)cc12` , thank you.
Response line: inactive

Prompt line: So what was the verdict on O=C(CCN1CCCCC1CO)Nc1ccc2c(c1)C(=O)c1ccc(NC(=O)CCN3CCCCC3CO)cc1C2=O (configuration not stated) in this test?
Response line: inactive

Prompt line: Which outcome was entered for the molecule `CN(C)/C=N/n1c2ccccc2c2ccccc21` in this test?
Response line: inactive

Prompt line: GET /call?item= `COc1ccc(/N=C/C=C/Nc2ccc(OC)cc2)cc1` returns the recorded outcome of this test.
Response line: inactive
